- Assay method text: Rat pharmacokinetics, i.v. bolus
- Assay type: in vivo, Sprague-Dawley rats
- Run parameters: rat, in vivo, iv, 45 mg/kg, female Sprague-Dawley rats, single 45 mg/kg slow i.v. bolus, plasma, LC-MS/MS, noncompartmental, n = 3 to 5/dose; read-out: CL (clearance)
Starred links: 1 amine or outer side, 2 acyl side, 3 side chain; linkers in the order of their positions; H or OH if unused. Positions of bridges follow the written chain, without caps; N, C: chain ends. Non-standard residues stand in square brackets, D forms with d. Residues, ends and D or L forms follow the SMILES beside them. *: point of attachment. Orn(4R-OH,5R-OCH2CH2NMe3+) = C[N+](C)(C)CCO[C@@H](N[*:3])[C@H](O)C[C@H](N[*:1])C(=O)[*:2]; pTerphenylCO(4''-OnC5H11) = CCCCCOc1ccc(-c2ccc(-c3ccc(C(=O)*)cc3)cc2)cc1; hTyr(3S-OH,4S-OH) = N[C@H](C(=O)O)[C@H](O)[C@@H](O)c1ccc(O)cc1; Pro(3S-OH,4S-Me) = C[C@H]1CN[C@H](C(=O)O)[C@H]1O; Hyp = O=C(O)[C@@H]1C[C@@H](O)CN1
Measurement kind: clearance (mL/min/kg)
Reply with just the number (in mL/min/kg).

**Q:** Give recorded clearance. CCCCCOc1ccc(-c2ccc(-c3ccc(C(=O)N[C@H]4C[C@@H](O)[C@@H](OCC[N+](C)(C)C)NC(=O)[C@@H]5[C@@H](O)[C@@H](C)CN5C(=O)[C@H]([C@@H](C)O)NC(=O)[C@H]([C@H](O)[C@@H](O)c5ccc(O)cc5)NC(=O)[C@@H]5C[C@@H](O)CN5C(=O)[C@H]([C@@H](C)O)NC4=O)cc3)cc2)cc1 [CD101] ({pTerphenylCO(4''-OnC5H11)}-[Orn(4R-OH,5R-OCH2CH2NMe3+)]T[Hyp][hTyr(3S-OH,4S-OH)]T[Pro(3S-OH,4S-Me)]; lactam 1-C)
**A:** 0.496
